- Read-out: sulfotransferase 2A1 (SULT2A1), SULT2A1 (gene 6822)
- assay.overview: LTEA_HepaRG_SULT2A1: Life Technologies and Expression Analysis (LTEA) Assay for sulfotransferase 2A1 (SULT2A1) using HepaRG (AID 2283531)
- measurement.setup: mRNA level, 48 h; actives raise or lower the signal
The source made the active and inactive calls. Rule for the calls: active = hit-call score of the fitted dose curve at least 0.9, where 1 is the maximum; inactive = score below 0.9.
Possible outcomes: active, inactive

Clc1ccccc1C(c1ccccc1)(c1ccccc1)n1ccnc1 :: active
O=c1ccc2ccccc2o1 :: inactive
O=C(Nc1ccc(Cl)cc1)Nc1ccc(Cl)c(Cl)c1 :: active
CCCCCCCCCC(=O)O :: inactive
NC(=O)c1nc(-c2cccc(-c3cc(F)ccc3OCC(F)(F)C(F)(F)F)c2)n[nH]1 :: inactive
Oc1ccccc1 :: inactive
CCCC(=O)OCCC(C)C :: inactive
O=C(O)Cc1cc(I)c(Oc2ccc(O)c(I)c2)c(I)c1 :: active
OCCO :: inactive
Cc1ccc(C(C)C)cc1 :: inactive
O=C(O)Cn1c(=O)n(Cc2ccc(Br)cc2F)c(=O)c2ccc(Cl)cc21 :: inactive
c1ccc(C[n+]2cccc3ccccc32)cc1 :: active
Cc1c2ccccc2c(C)c2c1ccc1ccccc12 :: active
O=C(O)c1ccccc1C(=O)OCc1ccccc1 :: inactive
